# testTarget: Chaperone protein DnaK (Escherichia coli (strain K12)) (UniProt P0A6Y8)
# Sequence (P0A6Y8 whole entry, looked up, the tested form may be a part): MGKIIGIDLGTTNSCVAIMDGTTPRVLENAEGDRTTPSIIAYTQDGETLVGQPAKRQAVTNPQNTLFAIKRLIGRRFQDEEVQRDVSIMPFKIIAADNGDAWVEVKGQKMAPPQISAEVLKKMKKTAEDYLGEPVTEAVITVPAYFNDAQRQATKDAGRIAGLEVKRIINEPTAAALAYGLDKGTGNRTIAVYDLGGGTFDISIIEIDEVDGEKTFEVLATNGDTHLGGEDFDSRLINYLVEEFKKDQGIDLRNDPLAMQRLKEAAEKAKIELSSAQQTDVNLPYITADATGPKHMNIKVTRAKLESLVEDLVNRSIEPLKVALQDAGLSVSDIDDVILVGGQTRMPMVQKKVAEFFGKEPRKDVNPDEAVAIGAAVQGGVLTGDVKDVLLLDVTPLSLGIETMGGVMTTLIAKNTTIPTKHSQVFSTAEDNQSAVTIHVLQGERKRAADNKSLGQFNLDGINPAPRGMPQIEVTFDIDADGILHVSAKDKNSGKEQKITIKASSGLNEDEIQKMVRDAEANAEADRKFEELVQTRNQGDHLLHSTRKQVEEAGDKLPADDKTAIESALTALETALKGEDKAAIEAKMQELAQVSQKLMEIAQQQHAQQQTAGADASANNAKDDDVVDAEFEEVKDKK
# experimentNotes: binders of DnaK substrate-binding domain, biophysical, NMR, chaperone (AID 1033)
# conditionLabel: Purified DnaK SBD, NMR ligand binding
The source made the active and inactive calls. No rule for the calls is given here.
Allowed answers: active, inactive

Qu. How was Cc1nnc(SCc2ccccc2)[nH]c1=O classified in this test?
Ans. inactive

Qu. How was Cc1cc(CN2C(=O)c3ccccc3C2=O)on1 classified in this test?
Ans. inactive

Qu. How was CCc1c(C(=O)N2CCOCC2)csc1C classified in this test?
Ans. inactive

Qu. How was OCC1CCCN2CCCCC12 (stereo not drawn) classified in this test?
Ans. inactive

Qu. How was CN1CC(=O)N=C1N classified in this test?
Ans. inactive

Qu. How was CC1CCCN(C/C(O)=C(\C#N)c2nc3ccccc3[nH]2)C1 (stereo not drawn) classified in this test?
Ans. inactive

Qu. How was C=CCn1c(N)c(C(=O)N2CCOCC2)sc1=S classified in this test?
Ans. inactive

Qu. How was NC(=O)CSc1nnnn1-c1ccccc1 classified in this test?
Ans. inactive

Qu. How was O=C(O)Cc1nc(-c2ccncc2)n[nH]1 classified in this test?
Ans. inactive

Qu. How was Cn1ccc(C(=O)NC(=S)NN2CCOCC2)n1 classified in this test?
Ans. inactive

Qu. How was O=C(CS(=O)(=O)c1ccccc1)Nc1nccs1 classified in this test?
Ans. inactive

Qu. How was O=C1NC(=O)C(C(C[N+](=O)[O-])c2ccc(O)cc2)C(=O)N1 (stereo not drawn) classified in this test?
Ans. inactive

Qu. How was O=C(O)C(O)C(O)C(O)C(O)C(=O)O (stereo not drawn) classified in this test?
Ans. inactive

Qu. How was COc1ccc(-c2coc3c(OC)c(OC)cc(O)c3c2=O)cc1 classified in this test?
Ans. inactive

Qu. How was Cc1ccccc1NC(=O)c1ocnc1C classified in this test?
Ans. inactive

Qu. How was O=C(Nc1ccccc1N1CCCC1)c1cccnc1 classified in this test?
Ans. inactive

Qu. How was CN1CCN(c2ccc(C(=O)O)cc2)CC1 classified in this test?
Ans. inactive

Qu. How was O=C(CSc1ncn[nH]1)c1ccc2c(c1)OCCO2 classified in this test?
Ans. inactive

Qu. How was O=c1cc(O)n(-c2ccc(F)cc2)c(=S)[nH]1 classified in this test?
Ans. inactive

Qu. How was CNC(=S)NCCN1CCOCC1 classified in this test?
Ans. inactive

Qu. How was Cc1ccc(CN2C3=NC(=O)CN3c3ccccc32)cc1 classified in this test?
Ans. inactive

Qu. How was CCc1sc(C(=O)NC)cc1Br classified in this test?
Ans. inactive

----------
# testTarget: Chaperone protein DnaK (Escherichia coli (strain K12)) (UniProt P0A6Y8)
# experimentNotes: binders of DnaK substrate-binding domain, biophysical, NMR, chaperone (AID 1033)
# conditionLabel: Purified DnaK SBD, NMR ligand binding
Activity calls are given as the source filed them. The rule behind the calls is not given here.
Allowed answers: active, inactive

Answered examples (10):
{"compound": "COCC(=O)Nc1cccc(Br)c1", "label": "inactive"}
{"compound": "O=C(NCc1ccccc1Br)c1cccs1", "label": "active"}
{"compound": "Cc1ccc(C(=O)NCCO)c(Cl)c1", "label": "inactive"}
{"compound": "Cc1cc(C)n2nc(Cc3ccccc3)nc2n1", "label": "inactive"}
{"compound": "c1cnc(N2CCNCC2)nc1", "label": "inactive"}
{"compound": "CC(=O)OC1CCC2(C)C3CC(=O)C4(C)C(CC5OC6(CCC(C)CO6)[C@@H](C)C54)C3CC[C@H]2C1 (stereo partly drawn)", "label": "inactive"}
{"compound": "O=C(CSc1ccc(Cl)cc1)N1CCOCC1", "label": "inactive"}
{"compound": "Nc1ccc(-c2cnco2)cc1", "label": "inactive"}
{"compound": "NC(=O)Cc1nc(-c2ccc(F)cc2)cs1", "label": "inactive"}
{"compound": "O=C(O)c1cccc(N2C(=O)C3CC=CCC3C2=O)c1 (stereo not drawn)", "label": "inactive"}

Qu. How was Cc1nnsc1C(=O)O classified in this test?
Ans. inactive

Qu. How was Nc1nc(N)nc(N2C(=O)c3ccccc3C2=O)n1 classified in this test?
Ans. inactive

Qu. How was Cc1cc(C(=O)Nc2sc3c(c2C#N)CCC3)no1 classified in this test?
Ans. inactive
